# MEASUREMENT_TARGET: human GPR68 (Homo sapiens)
# Construct: encoding full-length human GPR68 (uniprot ID: Q15743); expressed in transfected cells; host or cells: HEK293T
# Sequence (Q15743 whole entry): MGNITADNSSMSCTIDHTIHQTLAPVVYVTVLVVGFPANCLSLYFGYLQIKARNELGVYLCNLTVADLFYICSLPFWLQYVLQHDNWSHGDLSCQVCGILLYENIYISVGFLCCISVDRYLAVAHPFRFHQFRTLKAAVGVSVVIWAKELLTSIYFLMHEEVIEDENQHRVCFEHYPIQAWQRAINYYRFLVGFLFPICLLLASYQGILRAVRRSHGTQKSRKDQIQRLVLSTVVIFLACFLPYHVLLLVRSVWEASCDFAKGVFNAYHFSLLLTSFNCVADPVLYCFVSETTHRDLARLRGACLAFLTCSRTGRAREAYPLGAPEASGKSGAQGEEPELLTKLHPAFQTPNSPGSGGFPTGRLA
# PROTOCOL_SUMMARY: GPR68 Biochemical Assay (Promega GloSensor cAMP assay, GPR68 antagonism)
# Type: cell-based
# CONDITION_PARAMETERS: HEK293T cells transiently expressing hGPR68, antagonism of pH 5.5 stimulated cAMP, 15 min, read-out: hGPR68 IC50
RECORDED_ENDPOINT: IC50

Illustrative cases are given below, each with its answer.
[
  {
    "MOLECULE": "CNc1nn2c(C(=O)N[C@H]3C[C@@H](OC(F)(F)F)C3)ccnc2c1C(N)=O [Compound 145]",
    "RESULT": "< 0.05 µM"
  },
  {
    "MOLECULE": "COCc1nn2c(C(=O)N[C@H]3COc4c(Cl)cccc43)ccnc2c1C(N)=O [Compound 169]",
    "RESULT": "< 0.05 µM"
  },
  {
    "MOLECULE": "COCc1nn2c(C(=O)NCC3CC3(C)C)ccnc2c1C(N)=O (stereo not shown) [Compound 77]",
    "RESULT": "0.5 to 5 µM"
  }
]

Please look at the following molecule next.
Recall and state the measured IC50 for NC(=O)c1c(C2CC2)nn2c(C(=O)NC3CC(F)(F)C3)ccnc12 [Compound 136] . < 0.05 µM

====

# MEASUREMENT_TARGET: human GPR68 (Homo sapiens)
# Construct: encoding full-length human GPR68 (uniprot ID: Q15743); expressed in transfected cells; host or cells: HEK293T
# PROTOCOL_SUMMARY: GPR68 Biochemical Assay (Promega GloSensor cAMP assay, GPR68 antagonism)
# Type: cell-based
# CONDITION_PARAMETERS: HEK293T cells transiently expressing hGPR68, antagonism of pH 5.5 stimulated cAMP, 15 min, read-out: hGPR68 IC50
IC50 reference

Illustrative cases are given below, each with its answer.
[
  {
    "MOLECULE": "NC(=O)c1c(C2CC2)nc2c(C(=O)NC3Cc4ccccc43)ccnn12 (stereo not drawn)",
    "IC50": "< 0.05 µM"
  },
  {
    "MOLECULE": "NC(=O)c1c(C2CC2)nc2c(C(=O)NC3CS(=O)(=O)c4ccccc43)ccnn12 (stereo not drawn)",
    "IC50": "< 0.05 µM"
  },
  {
    "MOLECULE": "NC(=O)c1c(C2CC2)nn2c(C(=O)NC3Cc4ccccc4C3)ccnc12",
    "IC50": "< 0.05 µM"
  }
]

Recall and state the measured IC50 for COCc1nn2c(C(=O)N[C@H]3CCOc4ccccc43)ccnc2c1C(N)=O . 0.05 to 0.5 µM

Recall and state the measured IC50 for NC(=O)c1cnn2c(C(=O)NC3Cc4cccc(-c5ccccn5)c4C3)ccnc12 (stereo not drawn) . 50 to 100 µM

Recall and state the measured IC50 for NC(=O)c1cnn2c(C(=O)NC3Cc4ccccc4C3)ccnc12 . 0.05 to 0.5 µM

Recall and state the measured IC50 for COCc1nn2c(C(=O)NC3COc4ccc(Br)cc4C3)ccnc2c1C(N)=O (stereo not drawn) . < 0.05 µM

Recall and state the measured IC50 for COCc1nn2c(C(=O)NC3(C)CCc4ccccc43)ccnc2c1C(N)=O (stereo not drawn) . 0.05 to 0.5 µM

Recall and state the measured IC50 for COCc1nn2c(C(=O)NC3CS(=O)(=O)C3)ccnc2c1C(N)=O . < 0.05 µM
